Values were extracted from the supplement of paper PMC11616607.

Below, each entry is listed with its recorded drug sensitivity score.
# Tested on: COV318
# assay.remarks: drug sensitivity score (DSS) from 5-point dose-response viability curve (DSS (area-under-curve based score)); higher = more sensitive (stronger growth inhibition or killing); extreme values may be limits of the assay
# measurement.setup: exposure time: 72 h; concentration range: 5 concentrations over 10,000-fold range
quantity.name: drug sensitivity score

[[record]]
smiles_string = "NS(=O)(=O)OC[C@@H]1C[C@@H](n2ccc3c(N[C@H]4CCc5ccccc54)ncnc32)C[C@@H]1O"
observed_result = 3.5

[[record]]
smiles_string = "CCc1nc(C(N)=O)c(Nc2ccc(N3CCC(N4CCN(C)CC4)CC3)c(OC)c2)nc1NC1CCOCC1"
observed_result = 0.6

[[record]]
smiles_string = "CC[C@@H]1CN(C(=O)NCC(F)(F)F)C[C@@H]1c1cnc2cnc3[nH]ccc3n12"
observed_result = 2.1

[[record]]
smiles_string = "CNC(=O)c1cc(COc2nnc(Nc3ccc(Cl)cc3)c3ccoc23)ccn1"
observed_result = 0.2


* * *

# System: Ovsaho
# assay.remarks: drug sensitivity score (DSS) from 5-point dose-response viability curve (DSS (area-under-curve based score)); higher = more sensitive (stronger growth inhibition or killing); extreme values may be limits of the assay
# measurement.setup: exposure time: 72 h; concentration range: 5 concentrations over 10,000-fold range
Below, each entry is listed with its recorded drug sensitivity score.
quantity.name: drug sensitivity score

[[record]]
compound = "CCNC(=O)CCC/C=C\\C[C@@H]1[C@@H](/C=C/[C@@H](O)CCc2ccccc2)[C@H](O)C[C@@H]1O [Bimatoprost]"
observed_result = 0

[[record]]
compound = "COC[C@H](NC(=O)c1cnc(C)s1)C(=O)N[C@@H](COC)C(=O)N[C@@H](Cc1ccccc1)C(=O)[C@@]1(C)CO1 [Oprozomib]"
observed_result = 16.1

[[record]]
compound = "CO[C@@H]1[C@H](N(C)C(=O)c2ccccc2)C[C@H]2O[C@]1(C)n1c3ccccc3c3c4c(c5c6ccccc6n2c5c31)C(=O)NC4 [Midostaurin]"
observed_result = 14.1

[[record]]
compound = "c1cc(CN2CCCNCCNCCCNCC2)ccc1CN1CCCNCCNCCCNCC1 [Plerixafor]"
observed_result = 0

[[record]]
compound = "OC[C@H]1O[C@@H](n2cnc3c2N=CNC[C@H]3O)C[C@@H]1O [Pentostatin]"
observed_result = 0

[[record]]
compound = "CCn1cc(-c2ccnc3[nH]c(-c4cccc(CN(C)C)c4)cc23)c(-c2ccc(NC(=O)N(C)C)cc2)n1"
observed_result = 1.2

[[record]]
compound = "O=c1[nH]c(C2CCCN2)nc2c1oc1ccc(Cl)cc12 (stereo not drawn)"
observed_result = 0

[[record]]
compound = "Nc1ncnc2c1nc(Cl)n2[C@@H]1O[C@H](CO)[C@@H](O)[C@H]1O [8-chloro-adenosine]"
observed_result = 18.5


* * *

# System: HOSE2C
# assay.remarks: drug sensitivity score (DSS) from 5-point dose-response viability curve (DSS (area-under-curve based score)); higher = more sensitive (stronger growth inhibition or killing); extreme values may be limits of the assay
# measurement.setup: exposure time: 72 h; concentration range: 5 concentrations over 10,000-fold range
Below, each entry is listed with its recorded drug sensitivity score.
quantity.name: drug sensitivity score

[[record]]
smiles_string = "O=C(Nc1cccc(Nc2ncc(Br)c(NCCc3cnc[nH]3)n2)c1)N1CCCC1"
observed_result = 8

[[record]]
smiles_string = "CN(c1ncccc1CNc1nc(Nc2ccc3c(c2)CC(=O)N3)ncc1C(F)(F)F)S(C)(=O)=O"
observed_result = 3.9

[[record]]
smiles_string = "Cn1ncc(Cl)c1-c1cc(C(=O)N[C@H](CN)Cc2ccc(F)c(F)c2)oc1Cl"
observed_result = 2.1

[[record]]
smiles_string = "C[C@H]1C[C@@H](n2c(Nc3ccc(OC(F)(F)F)cc3)nc3cc(CCC(=O)O)ccc32)CC(C)(C)C1"
observed_result = 0


* * *

# Tested on: OVCAR8
# assay.remarks: drug sensitivity score (DSS) from 5-point dose-response viability curve (DSS (area-under-curve based score)); higher = more sensitive (stronger growth inhibition or killing); extreme values may be limits of the assay
# measurement.setup: exposure time: 72 h; concentration range: 5 concentrations over 10,000-fold range
quantity.name: drug sensitivity score

[[record]]
smiles_string = "COc1ccc(-c2nc(N3CCOCC3)c3sc(CN(C)c4ncc(C(=O)NO)cn4)cc3n2)cn1"
observed_result = 41.5

[[record]]
smiles_string = "Nc1ccccc1NC(=O)c1ccc(CNc2nccc(-c3cccnc3)n2)cc1"
observed_result = 13

[[record]]
smiles_string = "CCN(c1cc(-c2ccc(CN3CCOCC3)cc2)cc(C(=O)NCc2c(C)cc(C)[nH]c2=O)c1C)C1CCOCC1"
observed_result = 0

[[record]]
smiles_string = "CCc1c(C(=O)C(N)=O)c2c(OCC(=O)O)cccc2n1Cc1ccccc1"
observed_result = 0


* * *

# Tested on: Ovsaho
# assay.remarks: drug sensitivity score (DSS) from 5-point dose-response viability curve (DSS (area-under-curve based score)); higher = more sensitive (stronger growth inhibition or killing); extreme values may be limits of the assay
# measurement.setup: exposure time: 72 h; concentration range: 5 concentrations over 10,000-fold range
quantity.name: drug sensitivity score

[[record]]
molecule = "CCN1C(=O)CNc2ncc(-c3ccc(-c4nc[nH]n4)nc3C)nc21"
quantity_name = "drug sensitivity score"
observed_result = 11.2

[[record]]
molecule = "CN1CCC(CNc2ccc3ncc(-c4cccc(OC(F)(F)F)c4)n3n2)CC1"
quantity_name = "drug sensitivity score"
observed_result = 7.7

[[record]]
molecule = "O=S(=O)(c1cccc2c(O)nccc12)N1CCCNCC1 [Hydroxyfasudil]"
quantity_name = "drug sensitivity score"
observed_result = 0

[[record]]
molecule = "NC(=S)N/N=C/c1ncccc1N"
quantity_name = "drug sensitivity score"
observed_result = 2.4

[[record]]
molecule = "COc1ccc(Cn2ccc3ccc(C(=O)NO)cc32)cc1"
quantity_name = "drug sensitivity score"
observed_result = 2.6

[[record]]
molecule = "COc1cccc(OCCCN)c1-c1cc(Nc2cnc(C#N)cn2)n[nH]1"
quantity_name = "drug sensitivity score"
observed_result = 16.1

[[record]]
molecule = "CC[C@@H]1C(=O)N(C)c2cnc(Nc3ccc(C(=O)N[C@H]4CC[C@H](N5CCN(CC6CC6)CC5)CC4)cc3OC)nc2N1C(C)C"
quantity_name = "drug sensitivity score"
observed_result = 10.4

[[record]]
molecule = "O=C(Nc1cnn2ccc(N3CCC[C@@H]3c3cc(F)ccc3F)nc12)N1CC[C@H](O)C1"
quantity_name = "drug sensitivity score"
observed_result = 0

[[record]]
molecule = "Cc1ccc(NC(=O)c2ccc(CN3CC[C@H](N(C)C)C3)c(C(F)(F)F)c2)cc1Nc1nccc(-c2cncnc2)n1"
quantity_name = "drug sensitivity score"
observed_result = 0


* * *

# System: OVCAR4
# assay.remarks: drug sensitivity score (DSS) from 5-point dose-response viability curve (DSS (area-under-curve based score)); higher = more sensitive (stronger growth inhibition or killing); extreme values may be limits of the assay
# measurement.setup: exposure time: 72 h; concentration range: 5 concentrations over 10,000-fold range
quantity.name: drug sensitivity score

[[record]]
compound = "Cc1cc(Nc2nc(N[C@@H](C)c3ncc(F)cn3)ncc2Cl)[nH]n1 [AZD1480]"
quantity_name = "drug sensitivity score"
observed_result = 0.5

[[record]]
compound = "Clc1ccc(Nc2nnc(Cc3ccncc3)c3ccccc23)cc1 [Vatalanib]"
quantity_name = "drug sensitivity score"
observed_result = 0

[[record]]
compound = "O=C(Nc1ccc(OC(F)(F)Cl)cc1)c1cnc(N2CC[C@@H](O)C2)c(-c2cc[nH]n2)c1 [Asciminib]"
quantity_name = "drug sensitivity score"
observed_result = 0.3

[[record]]
compound = "Cc1ccc(F)c(NC(=O)Nc2ccc(-c3cccc4[nH]nc(N)c34)cc2)c1 [Linifanib]"
quantity_name = "drug sensitivity score"
observed_result = 0

[[record]]
compound = "C[C@@H](Oc1ccc2[nH]nc(/C=C/c3cnn(CCO)c3)c2c1)c1c(Cl)cncc1Cl"
quantity_name = "drug sensitivity score"
observed_result = 2.5

[[record]]
compound = "Nc1ccn([C@@H]2O[C@H](CO)[C@@H](O)C2(F)F)c(=O)n1 [Gemcitabine]"
quantity_name = "drug sensitivity score"
observed_result = 0

[[record]]
compound = "CNc1ncc2cc(-c3cc(NC(=O)NCCC(C)(C)C)c(F)cc3C)c(C)nc2n1"
quantity_name = "drug sensitivity score"
observed_result = 3.7

[[record]]
compound = "Cn1nnc2c(C(N)=O)ncn2c1=O [Temozolomide]"
quantity_name = "drug sensitivity score"
observed_result = 0

[[record]]
compound = "COc1cc2nccc(Oc3ccc(NC(=O)NC4CC4)c(Cl)c3)c2cc1C(N)=O [Lenvatinib]"
quantity_name = "drug sensitivity score"
observed_result = 0.6


* * *

# System: Ovsaho
# assay.remarks: drug sensitivity score (DSS) from 5-point dose-response viability curve (DSS (area-under-curve based score)); higher = more sensitive (stronger growth inhibition or killing); extreme values may be limits of the assay
# measurement.setup: exposure time: 72 h; concentration range: 5 concentrations over 10,000-fold range
quantity.name: drug sensitivity score

[[record]]
compound = "CCN(CC)CCNC(=O)c1c(C)[nH]c(/C=C2\\C(=O)Nc3ccc(-c4csc(-c5ccccc5)n4)cc32)c1C [Amcasertib]"
observed_result = 0

[[record]]
compound = "C=CC(=O)Nc1cccc(Nc2nc(Nc3ccc(OCCOC)cc3)ncc2F)c1 [Spebrutinib]"
observed_result = 2.2

[[record]]
compound = "Cn1ncc(Cl)c1-c1cc(C(=O)N[C@H](CN)Cc2ccc(F)c(F)c2)oc1Cl [Uprosertib]"
observed_result = 0.6

[[record]]
compound = "O=C(CCNC(=O)c1ccc(OC(F)(F)F)cc1)N[C@@H]1CCCc2ccccc21 [ML390]"
observed_result = 4.1

[[record]]
compound = "CNC(=O)c1ccccc1Nc1nc(Nc2ccc3c(c2OC)CCC[C@H](N2CCN(CCO)CC2)C3)ncc1Cl"
observed_result = 8.5

[[record]]
compound = "C1=N/C2=N/c3ccc(OCCN4CCCC4)c(c3)COC/C=C/COCc3cccc(c3)C(=C1)N2 [Pacritinib]"
observed_result = 8

[[record]]
compound = "CN1CCN(C(=O)c2ccc3cc(CCNc4ncnc5ccc(C#N)cc45)ccc3c2)CC1 [Senexin B]"
observed_result = 1.3

[[record]]
compound = "C#Cc1cccc(Nc2ncnc3cc(OCCOC)c(OCCOC)cc23)c1 [Erlotinib]"
observed_result = 4.8

